These entries and their values trace back to patent US20240300937A1.

IC50 values by entry
Target: CDK4/Cyclin D1 (Homo sapiens (Human))
Sequence (P11802 whole entry): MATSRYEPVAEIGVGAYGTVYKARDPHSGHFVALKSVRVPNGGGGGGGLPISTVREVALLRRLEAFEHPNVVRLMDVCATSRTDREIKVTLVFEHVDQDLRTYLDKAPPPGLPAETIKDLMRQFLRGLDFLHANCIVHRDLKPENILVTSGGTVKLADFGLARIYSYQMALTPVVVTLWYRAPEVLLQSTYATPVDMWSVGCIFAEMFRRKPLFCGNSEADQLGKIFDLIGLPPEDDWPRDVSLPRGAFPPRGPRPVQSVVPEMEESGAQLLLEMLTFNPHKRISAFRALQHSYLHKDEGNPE
Sequence (P24385 whole entry partner): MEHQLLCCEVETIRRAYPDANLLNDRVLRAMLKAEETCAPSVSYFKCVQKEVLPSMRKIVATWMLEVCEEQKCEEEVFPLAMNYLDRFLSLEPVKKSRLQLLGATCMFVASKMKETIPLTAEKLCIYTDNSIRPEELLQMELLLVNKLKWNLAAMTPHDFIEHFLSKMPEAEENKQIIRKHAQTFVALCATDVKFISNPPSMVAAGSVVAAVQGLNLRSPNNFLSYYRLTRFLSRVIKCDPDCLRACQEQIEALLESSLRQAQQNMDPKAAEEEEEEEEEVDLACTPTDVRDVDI
Experiment: CDK4/Cyclin D1 kinase TR-FRET inhibition assay
Details: 1 mM ATP, Rb (Ser780)-biotin substrate, read-out: CDK4D1 IC50
Description: Compounds disclosed herein were tested for inhibition of CDK4/Cyclin D1 or CDK6/Cyclin D3 kinase in an assay based on the time-resolved fluorescence-resonance energy transfer (TR-FRET) methodology. […] Plates were incubated at room temperature for 60 minutes, and the TR-FRET signals (ex337 nm, em665 nm/620 nm) were recorded on a PHERAstar FSX plate reader (BMG Labtech). […]

- Compound: "CC(C)c1c(C2(O)CCCC2)cnc2ccc(-c3nc(N[C@@H]4CCOC[C@H]4O)ncc3F)cc12 [Example 50]"
  Subject of test: "CDK4/Cyclin D1 (Homo sapiens (Human))"
  Unit spec: "nM"
  IC50: 4.4
- Compound: "CC(C)c1cc(C(C)(C)O)nc2ccc(-c3nc(N[C@@H]4CCOC[C@H]4O)ncc3F)cc12 [Example 206]"
  Subject of test: "CDK4/Cyclin D1 (Homo sapiens (Human))"
  Unit spec: "nM"
  IC50: 185
- Compound: "Cc1c(-c2nc(N[C@@H]3CCOC[C@H]3O)ncc2F)ccc2ncc(CN)c(C(C)C)c12 [Example 145]"
  Subject of test: "CDK4/Cyclin D1 (Homo sapiens (Human))"
  Unit spec: "nM"
  IC50: 1.7
- Compound: "COc1ccc(NCc2cnc3ccc(-c4nc(N[C@@H]5CCOC[C@H]5O)ncc4F)cc3c2C(C)C)cc1 [Example 46]"
  Subject of test: "CDK4/Cyclin D1 (Homo sapiens (Human))"
  Unit spec: "nM"
  IC50: 65
- Compound: "CC(C)c1c(CN2CCCOCC2)cnc2ccc(-c3nc(N[C@@H]4CCOC[C@H]4O)ncc3F)cc12 [Example 44]"
  Subject of test: "CDK4/Cyclin D1 (Homo sapiens (Human))"
  Unit spec: "nM"
  IC50: 25
- Compound: "CC(C)c1c(CNC[C@H]2CCCO2)cnc2ccc(-c3nc(N[C@@H]4CCOC[C@H]4O)ncc3F)cc12 [Example 24]"
  Subject of test: "CDK4/Cyclin D1 (Homo sapiens (Human))"
  Unit spec: "nM"
  IC50: 20
- Compound: "CC(C)c1c(CNC[C@H]2CCOC2)cnc2ccc(-c3nc(N[C@@H]4CCOC[C@H]4O)ncc3F)cc12 [Example 27]"
  Subject of test: "CDK4/Cyclin D1 (Homo sapiens (Human))"
  Unit spec: "nM"
  IC50: 23
